The reported numbers originate from PubChem BioAssay (NCI).

What TGI was measured for each of the following?
tested on: MCF7 breast; assay: NCI tumour cell line growth inhibition, 48 h

molecule: CCCC[P+](CCCC)(CCCC)C(C(=O)OC)C(C(=O)OC)=C1SC(C(=O)OC)=C(C(=O)OC)S1 (stereo not drawn)
TGI: > 100 µM

I would be grateful if you could provide TGI for each of the following entries.
1. O=C1C(Cl)=C(Oc2ccccc2)C(=O)c2ccccc21
2. O=c1ccc(-c2ccc(-n3ccnc3)cc2)nn1CCO

25.2 µM
> 100 µM

* * *

tested on: SK-MEL-5 melanoma; test: NCI tumour cell line growth inhibition, 48 h
What TGI was measured for each of the following?
Give bare numbers, in µM.

Examples from the recorded data:
compound: CC(=O)O[C@H]1CC[C@@]2(C)C(=CC[C@H]3[C@@H]4C[C@H](N5CCN(C)CC5)[C@H](OC(C)=O)[C@@]4(C)CC[C@@H]32)C1
TGI, µM: 12.5
//
compound: CN(C)Cc1cc(N=Nc2c(Cl)cccc2Cl)ccc1O
TGI, µM: 52.1
//
compound: O=C(/C=C/c1ccsc1)c1cccs1
TGI, µM: 36.3
//
compound: NCCCn1c2c(c3ccccc3c1=O)C(=O)c1cc3c(cc1-2)OCO3
TGI, µM: 0.802
//
compound: N#Cc1cccc(Nc2ccccc2SSc2ccccc2Nc2cccc(C#N)c2)c1
TGI, µM: 17

I would be grateful if you could provide TGI for each of the following entries.
1. Cc1cc(S(=O)(=O)Nc2nnc(-c3ccco3)c(-c3ccco3)n2)c(SCc2ccccc2)cc1Cl
2. Brc1nc2c3ccccc3ncn2c1Br
3. COc1ccc2c(c1)nc1n2C(c2c(F)cccc2F)SC1 (stereo unspecified)

32.5
39.3
56.4

* * *

tested on: TK-10 renal; assay: NCI tumour cell line growth inhibition, 48 h; in the data active = GI50 below about 0.43 µM; inactive = the rest
Form entry, call: pick from active, inactive

Some solved entries appear below for comparison.
compound: O=C(Nc1ncc([N+](=O)[O-])s1)c1cccc([N+](=O)[O-])c1
system: TK-10 renal
answer.label: inactive
//
compound: COC(=O)c1ccc(-c2nc3cc(F)c(F)cc3nc2C#N)cc1
system: TK-10 renal
answer.label: inactive
//
compound: O=C1c2cccnc2-c2nc(-c3ccccn3)cc3c2c1nc1ccccc13
system: TK-10 renal
answer.label: active
//
compound: OCc1ccc(N(Cc2ccc(F)cc2)C2CCC2)cc1Cl
system: TK-10 renal
answer.label: active
//
compound: COc1ccc(-n2c(-c3ccc(NC(=O)CCCl)cc3)nnc2-c2cc(OC)c(OC)c(OC)c2)cc1
system: TK-10 renal
answer.label: inactive
//
compound: O=C(Nc1cccc(NS(=O)(=O)c2ccc(F)cc2)c1)c1ccc(-c2ccccc2)cc1
system: TK-10 renal
answer.label: inactive
//
compound: COc1c(O)cc2oc3cc(O)c(CC=C(C)C)c(O)c3c(=O)c2c1C/C=C(\C)CCC=C(C)C
system: TK-10 renal
answer.label: inactive
//
compound: O=C1c2[nH]cc(CN[C@@H]3CCCN3)c2C(=O)c2c1c(O)c1ccccc1c2O
system: TK-10 renal
answer.label: inactive
//
compound: O=P(Oc1ccccc1)(Oc1ccccc1)C(O)c1ccccc1 (centres undefined)
system: TK-10 renal
answer.label: inactive
//
compound: Cn1cc(-c2nc(-c3c[nH]c4ncccc34)cs2)c2cc(Cl)ccc21
system: TK-10 renal
answer.label: inactive

Please indicate how the test categorized `CS(=O)(=O)c1ccc(Oc2nccc(-c3c(-c4ccc(F)cc4)ncn3C3CCNCC3)n2)cc1` .
inactive

Please indicate how the test categorized `Cc1c(C(=O)CCl)c(=O)n(-c2ccccc2)n1C` .
inactive

Please indicate how the test categorized `COc1cccc2c(Nc3ccc(C(=O)NCCNCCO)cc3)cc(-c3ccccc3)nc12` .
inactive

Please indicate how the test categorized `COc1cc2c3c(n(CCCO)c(=O)c2cc1OC)-c1cc2c(cc1C3=O)OCO2` .
inactive

* * *

What TGI was measured for each of the following?
test system: LXFL 529 NSCLC; test: NCI tumour cell line growth inhibition, 48 h

compound: CCCCCCC(O)C/C=C/CCCCCC/C(C(=O)OC)=C(/O)C(=O)OCC (stereo not drawn)
system: LXFL 529 NSCLC
TGI: > 100 µM

compound: COc1c2c(c(OC)c3c(=O)cc(C/C(=N/NC(=O)C[n+]4ccccc4)C(=O)Nc4cc(C)ccc4C)oc13)OCO2
system: LXFL 529 NSCLC
TGI: > 100 µM

Now consider the entry below.
Record request: TGI value, item COc1cccc2c1C(=O)c1c(O)c3c(c(O)c1C2=O)CC(O)(C(C)=O)CC3OC1CC([N+](C)(C)C)C(O)C(C)O1 (stereo not drawn)
> 100 µM

* * *

tested on: NCI-H23 lung; assay: NCI tumour cell line growth inhibition, 48 h
experimental.readout: TGI

compound: CCC12CCC(O)C1N(C)CCC2Sc1ccccc1 (stereo unspecified)
system: NCI-H23 lung
experimental.readout: TGI
endpoint.result: > 100 µM
//
compound: CC(=O)C(C(=N)C#N)C(=O)Nc1ccccc1 (stereo unspecified)
system: NCI-H23 lung
experimental.readout: TGI
endpoint.result: > 100 µM
//
compound: COc1nc(N)nc2c1n(C)c[n+]2C
system: NCI-H23 lung
experimental.readout: TGI
endpoint.result: > 100 µM
//
compound: CC(C)OP(=O)(OC(C)C)c1nn(-c2ccc([N+](=O)[O-])cc2)c(=N)s1
system: NCI-H23 lung
experimental.readout: TGI
endpoint.result: > 100 µM

I would be grateful if you could provide TGI for each of the following entries.
1. Cc1ccc2c(/C=C/C(=O)c3cc(CN4CCOCC4)c(O)c4nc(C)ccc34)cc(CN3CCOCC3)c(O)c2n1
2. O=c1ccc(-c2ccc(-n3ccnc3)cc2)nn1CCO

1: 4.5 µM; 2: > 100 µM

* * *

tested on: HOP-92 NSCLC; assay: NCI tumour cell line growth inhibition, 48 h
experimental.readout: GI50

Examples from the recorded data:
molecule: Cc1c(C(=O)CCl)c(=O)n(-c2ccccc2)n1C
endpoint.result: 1560 nM
//
molecule: C=C(CN1CCc2ccccc2C1)c1ccc(/C=C/C(=O)Nc2ccccc2N)cc1
endpoint.result: 8000 nM
//
molecule: Cc1cc(S(=O)(=O)Nc2nnc(-c3ccco3)c(-c3ccco3)n2)c(SCc2ccccc2)cc1Cl
endpoint.result: 21500 nM
//
molecule: CCNCCNc1cc(-c2ccc(Cl)cc2)c(C#N)c2nc3ccccc3n12
endpoint.result: 1700 nM
//
molecule: COc1ccc(C(=O)c2cc(OC)c(OC)c(OC)c2)cc1/C=C/C(=O)c1ccc(O)cc1
endpoint.result: 1210 nM
//
molecule: Cn1cc(-c2nc(-c3c[nH]c4ncccc34)cs2)c2cc(Cl)ccc21
endpoint.result: 2930 nM
//
molecule: Clc1ccc(N2COOC3(OOC2)C2CC4CC(C2)CC3C4)cc1
endpoint.result: 14900 nM
//
molecule: COc1c(O)cc2oc3cc(O)c(CC=C(C)C)c(O)c3c(=O)c2c1C/C=C(\C)CCC=C(C)C
endpoint.result: 6520 nM

I would be grateful if you could provide GI50 for each of the following entries.
1. O=C(Nc1cccc(C2=NCCN2)c1)c1ccc(OCCCOc2ccc(C(=O)Nc3cccc(C4=NCCN4)c3)cc2)cc1
2. NCCCn1c2c(c3ccccc3c1=O)C(=O)c1cc3c(cc1-2)OCO3

1250 nM
568 nM

* * *

test system: SF-539 CNS; experiment: NCI tumour cell line growth inhibition, 48 h
What GI50 was measured for each of the following?

molecule: O=C(CSc1nc2ccc([N+](=O)[O-])cc2[nH]1)Nc1cccc(C(F)(F)F)c1
GI50: 2900 nM

molecule: Clc1ccc(N2COOC3(OOC2)C2CC4CC(C2)CC3C4)cc1
GI50: 4740 nM

Record request: GI50 value, item `Clc1ccc(Nc2ccnc(NCCNc3ccnc4cc(Cl)ccc34)n2)cc1`
1300 nM

* * *

tested on: SNB-78 CNS; test: NCI tumour cell line growth inhibition, 48 h
experimental.readout: TGI

Examples from the recorded data:
compound: COCC1N=C(c2ccc(OC)c(OCc3ccccc3)c2OC)O[C@H]1c1ccccc1 (some centres undefined)
experimental.readout: TGI
endpoint.result: 96.2 µM
--
compound: COC(=O)[C@H](C)[C@H]1CC[C@@](C)([C@H]2CC3C(C)(C)[C@H]4CCC(C)=C[C@H]4C[C@@]3(C)O2)OO1 (some centres undefined)
experimental.readout: TGI
endpoint.result: 28.9 µM
--
compound: O=C(c1ccccc1)c1ccc2cccc(O)c2n1
experimental.readout: TGI
endpoint.result: > 100 µM
--
compound: Cc1ccc(C)c(NC(=O)CC2C(=O)Nc3ccccc3S2(=O)=O)c1 (centres undefined)
experimental.readout: TGI
endpoint.result: > 100 µM
--
compound: COC1C(=[N+]=[N-])C(=O)NC(=O)N1C1OC(COC(c2ccccc2)(c2ccccc2)c2ccccc2)C(O)C1O (centres undefined)
experimental.readout: TGI
endpoint.result: 45.6 µM

I would be grateful if you could provide TGI for each of the following entries.
1. CC(C)(C)c1ccc(Oc2ccc(C#N)c(C#N)c2)c(C(C)(C)C)c1
2. COC(=O)C(=O)C(C(=O)C(=O)Nc1ccc([N+](=O)[O-])cc1[N+](=O)[O-])c1nc2ccc([N+](=O)[O-])cc2[nH]c1=O (centres undefined)
3. N#C[C@]12CC3(CC[C@H]1CC1(C2)OCCO1)OCCO3
4. Cc1cc(N(CCC#N)CCC#N)ccc1N=Nc1ccccc1[N+](=O)[O-]

1. > 100 µM
2. > 100 µM
3. > 100 µM
4. > 100 µM
